// reported IC50 per item
Biological target: Mushroom tyrosinase (Agaricus bisporus, UniProt O42713+Q00024+C7FF04+C7FF05)
Assay: Inhibition of mushroom tyrosinase incubated for 10 mins by spectrophotometric analysis

CCCCCn1nc(-c2ccccc2)n(CC(=O)NNC(=O)Nc2ccccc2Cl)c1=O
> 20 µM
CCCCCn1nc(-c2ccccc2)n(CC(=O)NNC(=O)Nc2ccccc2F)c1=O
> 20 µM
CCCCCn1nc(-c2ccccc2)n(CC(=O)NNC(=O)Nc2ccc(Cl)cc2Cl)c1=O
0.00162 µM
CCCCCn1nc(-c2ccccc2)n(CC(=O)NNC(=S)Nc2ccc(F)cc2)c1=O
0.014 µM
CCCCCn1nc(-c2ccccc2)n(CC(=O)NNC(=S)Nc2cccc(C(F)(F)F)c2)c1=O
> 20 µM
CCCCCn1nc(-c2ccccc2)n(CC(=O)NNC(=S)Nc2ccc(Br)cc2)c1=O
0.019 µM

The molecule listed as CCCCCn1nc(-c2ccccc2)n(CC(=O)NNC(=O)Nc2ccc(F)cc2F)c1=O has a reported IC50 of > 20 µM

The molecule listed as CCCCCn1nc(-c2ccccc2)n(CC(=O)NNC(=O)Nc2cccc(Br)c2)c1=O has a reported IC50 of > 20 µM

The molecule listed as CCCCCn1nc(-c2ccccc2)n(CC(=O)NNC(=O)Nc2ccccc2Br)c1=O has a reported IC50 of > 20 µM

Reference source: ChEMBL document CHEMBL5331042
